- System: MDA-MB-231
- Experiment Description: Antiproliferative potency, MDA-MB-231
- Format: cell-based
- Condition Notes: Homo sapiens, MDA-MB-231, FBS 5%
Assay Readout: IC50 (µM)

>>> result_value("Cc1c(O)cc2c(c1C)OC(C)(CCCC(C)C)CC2=O (stereo not shown)")
20

----------
- System: mTORC2 (mTOR, rictor, SGK, PKCα)
- Experiment Description: Western blot of mTORC2 components and downstream targets
- Format: cell-based
Assay Readout: abundance or phosphorylation of mTORC2 components and targets (mTOR, rictor, SGK, PKCα)

>>> result_value("Cc1c(C)c2c(c(C)c1O)CC[C@@](C)(CCCC(C)C)O2")
"lack of changes"
>>> result_value("Cc1c(O)cc2c(c1C)O[C@](C)(CCCC(C)C)CC2")
"lack of changes"
>>> result_value("Cc1c(O)cc2c(c1C)O[C@](C)(CCC[C@H](C)CCC[C@H](C)CCCC(C)C)CC2 [γ-tocopherol, reference compound]")
"no effect"
>>> result_value("Cc1c(C)c2c(c(C)c1O)CC[C@@](C)(CCC[C@H](C)CCC[C@H](C)CCCC(C)C)O2 [α-tocopherol, reference compound]")
"no effect"

----------
- Assayed Target: PH domain of PHLPP1 (GST-PH domain fusion protein) (Homo sapiens, UniProt O60346)
- Construct: made in house
- Sequence (O60346 536-636 limits assumed): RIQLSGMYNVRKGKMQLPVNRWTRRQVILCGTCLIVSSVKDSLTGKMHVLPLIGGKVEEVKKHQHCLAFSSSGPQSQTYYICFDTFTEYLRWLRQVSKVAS
- Experiment Description: Surface plasmon resonance binding, PHLPP1 PH domain
- Condition Notes: SPR; means (n = 3) ± SD; read-out: Kd, PHLPP1 PH domain
Measured Kd by item
Assay Readout: Kd

>>> result_value("Cc1c(C)c2c(c(C)c1O)CC[C@@](C)(CCCC(C)C)O2")
"3100 nM"
>>> result_value("Cc1c(O)cc2c(c1C)O[C@](C)(CCCC(C)C)CC2")
"700 nM"

----------
- Assayed Target: PH domain of Akt (GST-PH domain fusion protein) (Homo sapiens, UniProt P31749)
- Construct: made in house
- Sequence (P31749 5-108 limits assumed): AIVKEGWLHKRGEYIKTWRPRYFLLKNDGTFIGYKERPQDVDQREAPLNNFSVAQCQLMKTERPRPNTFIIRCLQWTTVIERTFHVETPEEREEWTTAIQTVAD
- Experiment Description: Surface plasmon resonance binding, Akt PH domain
- Condition Notes: SPR, wild-type PH domain; means (n = 3) ± SD; read-out: Kd, Akt PH domain
pKd: −log10 of the molar value.
Assay Readout: pKd

>>> result_value("Cc1c(C)c2c(c(C)c1O)CC[C@@](C)(CCCC(C)C)O2")
5.47
>>> result_value("Cc1c(O)cc2c(c1C)O[C@](C)(CCCC(C)C)CC2")
6.05
